- measuredTarget: T1, full-length b5R, released from the linker-cleaved cyt b5-b5R fusion (mouse, UniProt Q9DCN2 1-301)
- T1 construct: surmised: cleavage of the linker ENLYFQ/G leaves a G at the N-terminus; no extra residue after the C-terminus of b5R
- T1 sequence (looked up): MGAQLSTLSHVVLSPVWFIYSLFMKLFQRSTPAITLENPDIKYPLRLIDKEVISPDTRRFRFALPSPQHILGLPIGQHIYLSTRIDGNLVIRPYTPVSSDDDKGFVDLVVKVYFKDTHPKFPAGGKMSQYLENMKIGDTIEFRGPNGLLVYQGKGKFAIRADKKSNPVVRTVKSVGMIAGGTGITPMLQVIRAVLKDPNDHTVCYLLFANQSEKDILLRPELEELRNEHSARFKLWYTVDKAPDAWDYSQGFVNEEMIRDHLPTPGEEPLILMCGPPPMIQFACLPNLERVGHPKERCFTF
- methodSummary: SEC; TM mutants in the linker-cleavable fusions, purified and cleaved by TEV protease; SRE-10C SEC-300 (Sepax) on HPLC, FPLC buffer, 0.75 mL/min; heme absorbance (413 nm by the results, 423 nm by the methods) gives the ratio of heterodimer to monomeric cyt b5
- appliedConditions: both partners purified
experimentalReadout: binding result

cyt b5 Y127A, released from the linker-cleaved cyt b5-b5R-TEV chimera (natural protein, mouse, UniProt P56395 1-134, looked up, cytochrome b5, mouse, UniProt P56395; as m6 with the mutation; source: High Five cells (Bac-to-Bac), purified as a fusion with b5R, cleaved by TEV protease) MAGQSDKDVKYYTLEEIQKHKDSKSTWVILHHKVYDLTKFLEEHPGGEEVLREQAGGDATENFEDVGHSTDARELSKTYIIGELHPDDRSKIAKPSDTLITTVESNSSWWTNWVIPAISALAVALMARLYMAED    binds
cyt b5 S119A, released from the linker-cleaved cyt b5-b5R-TEV chimera (natural protein, mouse, UniProt P56395 1-134, looked up, cytochrome b5, mouse, UniProt P56395; as m6 with the mutation; source: High Five cells (Bac-to-Bac), purified as a fusion with b5R, cleaved by TEV protease) MAGQSDKDVKYYTLEEIQKHKDSKSTWVILHHKVYDLTKFLEEHPGGEEVLREQAGGDATENFEDVGHSTDARELSKTYIIGELHPDDRSKIAKPSDTLITTVESNSSWWTNWVIPAIAALAVALMYRLYMAED    binds
cyt b5 A122W, released from the linker-cleaved cyt b5-b5R-TEV chimera (natural protein, mouse, UniProt P56395 1-134, looked up, cytochrome b5, mouse, UniProt P56395; as m6 with the mutation; source: High Five cells (Bac-to-Bac), purified as a fusion with b5R, cleaved by TEV protease) MAGQSDKDVKYYTLEEIQKHKDSKSTWVILHHKVYDLTKFLEEHPGGEEVLREQAGGDATENFEDVGHSTDARELSKTYIIGELHPDDRSKIAKPSDTLITTVESNSSWWTNWVIPAISALWVALMYRLYMAED    binds
cyt b5 V123W, released from the linker-cleaved cyt b5-b5R-TEV chimera (natural protein, mouse, UniProt P56395 1-134, looked up, cytochrome b5, mouse, UniProt P56395; as m6 with the mutation; source: High Five cells (Bac-to-Bac), purified as a fusion with b5R, cleaved by TEV protease) MAGQSDKDVKYYTLEEIQKHKDSKSTWVILHHKVYDLTKFLEEHPGGEEVLREQAGGDATENFEDVGHSTDARELSKTYIIGELHPDDRSKIAKPSDTLITTVESNSSWWTNWVIPAISALAWALMYRLYMAED    binds
cyt b5 L121W, released from the linker-cleaved cyt b5-b5R-TEV chimera (natural protein, mouse, UniProt P56395 1-134, looked up, cytochrome b5, mouse, UniProt P56395; as m6 with the mutation; source: High Five cells (Bac-to-Bac), purified as a fusion with b5R, cleaved by TEV protease) MAGQSDKDVKYYTLEEIQKHKDSKSTWVILHHKVYDLTKFLEEHPGGEEVLREQAGGDATENFEDVGHSTDARELSKTYIIGELHPDDRSKIAKPSDTLITTVESNSSWWTNWVIPAISAWAVALMYRLYMAED    binds

Lab note: next binder to report on.
Quick note, binding result for cyt b5 M126A, released from the linker-cleaved cyt b5-b5R-TEV chimera (natural protein, mouse, UniProt P56395 1-134, looked up, cytochrome b5, mouse, UniProt P56395; as m6 with the mutation; source: High Five cells (Bac-to-Bac), purified as a fusion with b5R, cleaved by TEV protease) MAGQSDKDVKYYTLEEIQKHKDSKSTWVILHHKVYDLTKFLEEHPGGEEVLREQAGGDATENFEDVGHSTDARELSKTYIIGELHPDDRSKIAKPSDTLITTVESNSSWWTNWVIPAISALAVALAYRLYMAED landed at binds

The reported numbers originate from paper PMC9468158.
